Where these numbers come from: PubChem BioAssay

# experimental_protocol: CREB reporter modulators under forskolin, primary screen, cell-based, PC12, CRE-LacZ reporter, forskolin-stimulated (AID 1146);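 note: PC12 cells with 6xCRE LacZ reporter stimulated by forskolin 10 µM; beta-galactosidase reporter signal reflecting CREB driven transcription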
# measurement_parameters: luminescence, 4.5 h, higher = more signal, called active from +8 up or from −8 down
Label rule, in plain words: z-score of 0.4 and up is 1, under 0.4 is -1.

Worked set:
- compound: "COc1ccccc1CN1C(=O)c2ccccc2[C@@]2(Cc3ccccc3N(C(C)C)C2=O)[C@@H]1c1ccc(CO)cc1"
  answer_label: -1
- compound: "Cc1cc(C)c(-c2cc([C@H](C)ON=C3[C@H]4CCn5c(=O)n(-c6ccccc6)c(=O)n5[C@H]4[C@H](O)[C@@H]4O[C@H]34)on2)c(C)c1"
  answer_label: 1
- compound: "CCc1cc2c(nc1CC)CCN(CCC(C)=NOC[C@@H](O)[C@H]1O[C@@H]3OC(C)(C)O[C@@H]3[C@H]1O)C2"
  answer_label: -1
- compound: "C#CCCCON=C1C[C@@H](O)[C@@H](O)[C@@H]2[C@@H]3C(=O)N(c4cccc(Oc5ccccc5)c4)C(=O)[C@@H]3CC[C@@H]12"
  answer_label: 1
- compound: "CN1C(=O)C2C(C1=O)C1C=C(CCCO)C2C(c2ccc(CN3CCCC3)cc2)N1C (configuration not stated)"
  answer_label: -1

Ask | Textbook exercise: given the entry `O=C1[C@H]2[C@H]3[C@H](O)[C@H](O)CC(=NO[C@@H]4O[C@H](CO)[C@@H](O)[C@H](O)[C@H]4O)[C@@H]3CC[C@H]2C(=O)N1Cc1ccc2c(c1)OCO2` , state whether its z-score is greater than or equal to 0.4.
Reply | -1

Ask | Textbook exercise: given the entry `[N-]=[N+]=NCc1ccccc1[C@@H]1OC(c2ccc(OCCCO)cc2)=N[C@]1(Cc1ccccc1)C(=O)N1CCOCC1` , state whether its z-score is greater than or equal to 0.4.
Reply | 1

====

# experimental_protocol: small-molecule binders of probe aLefty1, primary screen, biochemical, small-molecule microarray, 635/667 nm fluorescence (AID 1153);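 note: score merges spot fluorescence with signal-to-noise ratio from the scanned slide images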
# measurement_parameters: higher = more signal
Label rule, in plain words: composite z-score of -0.01 and up is MET, under -0.01 is NOT MET.

Worked set:
- compound: "C[C@@H](c1ccccc1)N1C(=O)[C@H]2[C@H]3[C@H](O)[C@H](O)CC(=NNC(=O)OCc4ccccc4)[C@H]3CC[C@H]2C1=O"
  answer_label: "MET"
- compound: "CC(C)[Si]1(C(C)C)O[C@@H](c2ccccc2)c2cc(C3CC3)nc(-c3ccccc3)c21"
  answer_label: "NOT MET"
- compound: "CC1CC/C=C\\[C@H]2OC34C=CCN(Cn5nnc6ccccc65)C(=O)[C@H]3N(CCO)C(=O)[C@@H]4C2C(=O)O1 (some centres not stated)"
  answer_label: "NOT MET"
- compound: "O=C(CS)NCCCCCNC(=O)[C@H]1C[C@H]2C(=O)N3CCC[C@H]3C(=O)N2[C@H]1c1cccc(OCCO)c1"
  answer_label: "MET"
- compound: "O=C1C2C=CC(C(O)c3ccc([N+](=O)[O-])cc3)N(Nc3ccc([N+](=O)[O-])cc3)C2C(=O)N1c1ccccc1 (configuration not stated)"
  answer_label: "MET"
- compound: "O=C1[C@H]2[C@H]3[C@H](O)[C@H](O)CC(=NO[C@@H]4O[C@H](CO)[C@@H](O)[C@H](O)[C@H]4O)[C@@H]3CC[C@H]2C(=O)N1c1ccc(F)cc1F"
  answer_label: "NOT MET"

Kindly consider the entry below.
Ask | Textbook exercise: given the entry `C[C@H](c1ccccc1)N1C(=O)[C@H]2[C@H]3[C@H](O)[C@H](O)CC(=O)[C@@H]3CC[C@H]2C1=O` , state whether its composite z-score is greater than or equal to -0.01.
Reply | MET

====

# experimental_protocol: S. cerevisiae RM11-1a growth modifiers, primary screen, strain RM11-1a, OD600, basal, 24 h (AID 1177);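 note: cultures grown under basal conditions with no added stressor; test concentration not given here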
# measurement_parameters: OD600, 24 h, higher = more signal, called active from +8 up or from −8 down
Quick reference: z-score of the listed items.
Number, no unit, nothing else.

Recorded z-score, per entry:
- compound: "Cc1ccc(S(=O)(=O)N[C@@H]2COC(=O)[C@H](C)COC(=O)CC=C[C@H]2C)cc1"
  z-score: 1.3
- compound: "C[C@@H]1C=CCC(=O)OC[C@H](C)C(=O)N2CCC[C@H]2C(=O)OC1"
  z-score: 0.21
- compound: "CCOC(=O)[C@H](CC(C)C)NC(=O)CCC1CC(OC(=O)NCc2cccc3ccccc23)CC2(CCCC(COC(=O)NCCc3ccccc3OC)O2)O1 (stereo partly drawn)"
  z-score: -0.0922
- compound: "COC(=O)CC1OC1[C@H](C)[C@@H](OC)C(C)C (stereo partly drawn)"
  z-score: 0.748
- compound: "C=C(/C(=C/C[C@@H](OC(=O)c1ccncc1)c1ccc(OCCO)cc1)c1cnc2ccccc2c1)C(C)C"
  z-score: -22.1

Ask | What z-score value was documented for this compound, O=C1CCCC2OC12C(O)CCc1ccccc1 (stereo not drawn) ?
Reply | 0.142

Ask | What z-score value was documented for this compound, `NCCCCCNC(=O)[C@@H]1C[C@@H]2C(=O)N3CCC[C@H]3C(=O)N2[C@@H]1c1cccc(OCCO)c1` ?
Reply | -0.914

Ask | What z-score value was documented for this compound, `C=CCN1C(=O)[C@]2(O[C@H](CCn3cc(CCO)nn3)[C@@H]([Si](C)(C)c3ccc(OC)cc3)[C@@H]2C)c2cc(N3CCOC3=O)ccc21` ?
Reply | 0.817

====

Quick reference: composite z-score of the listed items.
# Tested on: Human papillomavirus type 1a E7 protein (residues 1-88)
# experimental_protocol: HPV1a E7 small-molecule binders, primary screen, biochemical, small-molecule microarray, residues 1-88, 635 nm (AID 1129)
# measurement_parameters: small-molecule microarray binding, fluorescence 635 nm; higher = more signal
Number, no unit, nothing else.

- compound: "COC(=O)[C@@H]1CCCN1C(=O)[C@@H](C)CO"
  target_system: "Human papillomavirus type 1a E7 protein (residues 1-88)"
  composite z-score: 1.16
- compound: "Cc1cc2c(nc1C)CCCN2CC(O)CN1CCN(C)CC1 (stereo not drawn)"
  target_system: "Human papillomavirus type 1a E7 protein (residues 1-88)"
  composite z-score: 0.1

Ask | What composite z-score value was documented for this compound, CCCCCN1CC=CC23O[C@@H]4C=CCOC(=O)[C@@H]4[C@H]2C(=O)N(C(CO)C(C)C)[C@@H]3C1=O (stereo partly drawn) ?
Reply | -1.02

====

Quick reference: composite z-score of the listed items.
# target_system: Left-right determination factor 2 (Homo sapiens) (UniProt O00292)
# Sequence (O00292 whole entry, looked up): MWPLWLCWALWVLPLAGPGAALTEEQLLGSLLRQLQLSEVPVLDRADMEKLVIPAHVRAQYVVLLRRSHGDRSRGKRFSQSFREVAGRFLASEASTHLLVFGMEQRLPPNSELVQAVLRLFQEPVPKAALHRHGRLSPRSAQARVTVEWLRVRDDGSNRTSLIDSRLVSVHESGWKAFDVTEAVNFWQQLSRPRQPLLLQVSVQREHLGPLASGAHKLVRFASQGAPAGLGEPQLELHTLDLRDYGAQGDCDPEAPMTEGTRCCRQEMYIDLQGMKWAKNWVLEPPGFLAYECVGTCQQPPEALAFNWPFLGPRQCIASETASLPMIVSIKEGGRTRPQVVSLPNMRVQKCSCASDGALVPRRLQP
# experimental_protocol: LEFTY2 binders on small-molecule microarrays, primary screen, biochemical, small-molecule microarray, 635 nm fluorescence scan (AID 1110)
# measurement_parameters: LEFTY2 binding, higher = more signal

- test_smiles: "C[C@H](c1ccccc1)N1C(=O)[C@H]2[C@H]3[C@H](O)[C@H](O)CC(=O)[C@@H]3CC[C@H]2C1=O"
  composite z-score: 0.417
- test_smiles: "COCCCNC(=O)[C@]1(CCC(=O)OC(C)(C)C)N=C(c2ccc(OCCCO)cc2)O[C@@H]1c1ccccc1N=[N+]=[N-]"
  composite z-score: 0.197
- test_smiles: "CC(C)CON=C1C[C@@H](O)[C@@H](O)[C@@H]2[C@@H]3C(=O)N(C[C@@H]4CCCO4)C(=O)[C@@H]3CC[C@H]12"
  composite z-score: 0.781

Ask | What is its composite z-score for Left-right determination factor 2 (Homo sapiens) (UniProt O00292)? Entry: `O=C1C[C@]2(c3ccc([N+](=O)[O-])cc3)C(=O)N(CCN3CCOCC3)c3cc(CO)ccc3[C@H]2N1CC12CC3CC(CC(C3)C1)C2`
Reply | -1.1

====

# experimental_protocol: binders of probe aFGF10 on microarray, primary screen, stem cell growth factor project, biochemical, small-molecule microarray, fluorescence 635/667 (AID 1071);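 note: score merges 667 nm spot intensity and signal to noise from triplicate slides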
# measurement_parameters: higher = more signal
Label rule, in plain words: composite z-score of 0.3 and up is Yes, under 0.3 is No.

Ask | Textbook exercise: given the entry `O=C1[C@H]2[C@H]3[C@H](O)[C@H](O)CC(=NO[C@@H]4O[C@H](CO)[C@@H](O)[C@H](O)[C@H]4O)[C@H]3CC[C@H]2C(=O)N1Cc1ccccc1` , state whether its composite z-score is greater than or equal to 0.3.
Reply | Yes

Ask | Textbook exercise: given the entry `CO[C@H]1COC(=O)[C@@H]2CCCN2C(=O)[C@@H](C)COC(=O)CC=C[C@@H]1C` , state whether its composite z-score is greater than or equal to 0.3.
Reply | Yes

Ask | Textbook exercise: given the entry `O=C1O[C@@H](c2ccccc2)[C@@H](c2ccccc2)N2[C@@H](c3ccc(OCCO)cc3)[C@]3(C(=O)Nc4ccc(C#CCCO)cc43)[C@@H](C(=O)N3CCCCCCC3)[C@H]12` , state whether its composite z-score is greater than or equal to 0.3.
Reply | Yes

Ask | Textbook exercise: given the entry CCOC(=O)[C@H](Cc1ccccc1)NC(=O)CCC1CC(OC(=O)NCc2ccc3c(c2)OCO3)CC2(CCCC(COC(=O)NCC3CCCCC3)O2)O1 (stereo not given in full) , state whether its composite z-score is greater than or equal to 0.3.
Reply | No
